Catalogue of pIC50 values
System: H23
Experiment: Cell growth inhibition (CellTiter-Glo), NSCLC line H23
Format: cell-based
Conditions: Homo sapiens, NCI-H23, 96 h; H23 non-small cell lung cancer cell line, 4 days
Method: Cell growth inhibitory activity of representative BET bromodomain degraders in representative non-small cell lung cancer cell lines was determined using the CellTiter-Glo® Luminescent Cell Viability Assay. […] Cell viability was determined using the CellTiter-Glo® Luminescent Cell Viability Assay Kit (Promega, Madison, Wis.) according to the manufacture's instruction. […] The luminescent signal was measured using a Tecan Infinite M1000 multimode microplate reader (Tecan, Morrisville, N.C.). […]
pIC50 field: float, defined as -log10 of concentration (mol/L).

// solved cases for pIC50 follow
[
  {
    "COMPOUND": "CCn1nc(C2CC2)cc1Nc1nc(C(=O)NCCCCNc2cccc3c2C(=O)N(C2CCC(=O)NC2=O)C3=O)nc2[nH]c3cc(-c4c(C)noc4C)c(OC)cc3c12 (stereo not drawn)",
    "READOUT": "pIC50",
    "MEASURED_VALUE": 5.51
  },
  {
    "COMPOUND": "CCn1nc(C2CC2)cc1Nc1nc(COC)nc2[nH]c3cc(-c4c(C)noc4C)c(OC)cc3c12 [Cpd. A, reference compound]",
    "READOUT": "pIC50",
    "MEASURED_VALUE": 6.89
  }
]

From here, focus on the item given below.
input: Would you kindly share the measured pIC50 for CCn1nc(C2CC2)cc1Nc1nc(C(=O)NCCCOCCOCCOCCCNc2cccc3c2C(=O)N(C2CCC(=O)NC2=O)C3=O)nc2[nH]c3cc(-c4c(C)noc4C)c(OC)cc3c12 (stereo not drawn) ?
output: 6.21

###

Catalogue of pIC50 values
Tested on: H2030
Experiment: Cell growth inhibition (CellTiter-Glo), NSCLC line H2030
Type: cell-based
Settings: Homo sapiens, NCI-H2030, 96 h; H2030 non-small cell lung cancer cell line, 4 days
pIC50 field: float, defined as -log10 of concentration (mol/L).

// solved cases for pIC50 follow
[
  {
    "COMPOUND": "CCn1nc(C2CC2)cc1Nc1nc(COC)nc2[nH]c3cc(-c4c(C)noc4C)c(OC)cc3c12 [Cpd. A, reference compound]",
    "pIC50": 6.96
  },
  {
    "COMPOUND": "CCn1nc(C2CC2)cc1Nc1nc(C(=O)NCCCOCCOCCOCCCNc2cccc3c2C(=O)N(C2CCC(=O)NC2=O)C3=O)nc2[nH]c3cc(-c4c(C)noc4C)c(OC)cc3c12 (stereo not drawn) [Cpd. No. 4]",
    "pIC50": 6.86
  }
]

From here, focus on the item given below.
input: Would you kindly share the measured pIC50 for CCn1nc(C2CC2)cc1Nc1nc(C(=O)NCCCCNc2cccc3c2C(=O)N(C2CCC(=O)NC2=O)C3=O)nc2[nH]c3cc(-c4c(C)noc4C)c(OC)cc3c12 (stereo not drawn) [Cpd. No. 9] ?
output: 6.57

###

Catalogue of pIC50 values
Tested on: LS513
Experiment: Cell growth inhibition (CellTiter-Glo), colon cancer line LS513
Format: cell-based
Conditions: Homo sapiens, LS-513
pIC50 field: float, defined as -log10 of concentration (mol/L).

// solved cases for pIC50 follow
[
  {
    "COMPOUND": "CCn1nc(C2CC2)cc1Nc1nc(C(=O)NCCCCNc2cccc3c2C(=O)N(C2CCC(=O)NC2=O)C3=O)nc2[nH]c3cc(-c4c(C)noc4C)c(OC)cc3c12 (stereo not drawn)",
    "pIC50": 6.73
  },
  {
    "COMPOUND": "CCn1nc(C2CC2)cc1Nc1nc(COC)nc2[nH]c3cc(-c4c(C)noc4C)c(OC)cc3c12 [Cpd. A, reference compound]",
    "pIC50": 6.04
  }
]

From here, focus on the item given below.
input: Would you kindly share the measured pIC50 for CCn1nc(C2CC2)cc1Nc1nc(C(=O)NCCCOCCOCCOCCCNc2cccc3c2C(=O)N(C2CCC(=O)NC2=O)C3=O)nc2[nH]c3cc(-c4c(C)noc4C)c(OC)cc3c12 (stereo not drawn) ?
output: 7.15
